# cell viability annotations
system: WHIM2 (cells of a triple-negative basal-like breast cancer xenograft); experiment: cell viability (% of vehicle); higher = less cytotoxic; conditions: 10 µM; 72 h;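 also: PDX cells carrying CMV promoter-driven luciferase, viability read as total photon flux per second by IVIS imaging following D-luciferin, vehicle control 0.1% DMSO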
Keep the answer to the number alone.

Sample records with cell viability:
CSc1nc2cc(Oc3cccc(Cl)c3Cl)c(Cl)cc2[nH]1 = 124
CC(COc1ccccc1)N(CCCl)Cc1ccccc1.Cl (stereo not given) [Phenoxybenzamine HCl] = 93.9
CCCNC(C)C(=O)Nc1c(C)csc1C(=O)OC.Cl (stereo not given) [Articaine HCl] = 104
Cn1c(=O)c2[nH]cnc2n(C)c1=O.Cn1c(=O)c2[nH]cnc2n(C)c1=O.NCCN = 97.4
CC(=O)N(CC(O)CO)c1c(I)c(C(=O)NCC(O)CO)c(I)c(C(=O)NCC(O)CO)c1I (stereo not given) [Iohexol] = 99.2

What measured cell viability goes with N=C(N)c1ccc(OCCCCCOc2ccc(C(=N)N)cc2)cc1.O=S(=O)(O)CCO.O=S(=O)(O)CCO [Pentamidine isethionate] ? 85.2

Also CCN(CC)CCOC(=O)C(c1ccccc1)c1ccccc1.Cl [Adiphenine HCl] ? 92.4

What would you report for CCCCCCCCCCCCCCCCCCCCCCO ? 81.8

Then what about the compound CCc1cccc2c3c([nH]c12)C(CC)(CC(=O)O)OCC3 (stereo not given) ? 92.6

Consider next the compound CC(=O)N[C@H](Cc1ccc2ccccc2c1)C(=O)N[C@H](Cc1ccc(Cl)cc1)C(=O)N[C@H](Cc1cccnc1)C(=O)N[C@@H](CO)C(=O)N[C@@H](Cc1ccc(O)cc1)C(=O)N[C@H](CCCNC(N)=O)C(=O)N[C@@H](CC(C)C)C(=O)N[C@@H](CCCNC(=N)N)C(=O)N1CCC[C@H]1C(=O)N[C@H](C)C(N)=O in the same way. 122

Moving on to CC(C)OC(=O)C(C)NP(=O)(OCC1OC(n2ccc(=O)[nH]c2=O)C(C)(F)C1O)Oc1ccccc1 (stereo not given) 104

Try Cc1ccsc1C(=CCCN1CCC[C@@H](C(=O)O)C1)c1sccc1C next. 100
